# System: Crude diglycosidase
# assayRemarks: Examination of temperature in the conversion into isoflavone aglycons by diglycosidase using soybean materials
# Format: biochemical, Penicillium multicolor IAM7153
# experimentalSetup: 65 °C; heat treatment of enzyme: no; 1 h
outcomeMeasure: Decomposition efficiency of glycitin family in soymilk

>>> result("COc1cc2c(=O)c(-c3ccc(O)cc3)coc2cc1O[C@@H]1O[C@H](COC(=O)CC(=O)O)[C@@H](O)[C@H](O)[C@H]1O")
"42.4%"
>>> result("COc1cc2c(=O)c(-c3ccc(O)cc3)coc2cc1O")
"57.6%"
>>> result("COc1cc2c(=O)c(-c3ccc(O)cc3)coc2cc1O[C@@H]1O[C@H](CO)[C@@H](O)[C@H](O)[C@H]1O")
"not detected"
>>> result("COc1cc2c(=O)c(-c3ccc(O)cc3)coc2cc1O[C@@H]1O[C@H](COC(C)=O)[C@@H](O)[C@H](O)[C@H]1O")
"not detected"
